Experiment: chemical genetic growth profiling, strain panel (AID 1159580);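 also: tested at 20 µM; growth read once vehicle control cultures reached saturation at 30 °C; 1 = growth at the plate median or of vehicle wells; lower values mean less growth of the strain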
Conditions: S. cerevisiae deletion strains, growth OD, locus YDL040C, strain nat1, hits give low values
The whole screen tested about 5,500 compounds, of which about 2,000 (36%) were called active. Not shown: some 18% with an inconclusive outcome. The list shows a part of the results.
Examples of compounds with documented normalized growth follow.
Please reply with the number alone, leaving off any unit.

compound	normalized growth
COc1ccc2ccc(=O)oc2c1	1
Cc1cc(OC(=O)c2c(C)cc(O)cc2O)cc(O)c1C(=O)O	0.98
C[C@]12CCC3c4ccc(OS(=O)(=O)O)cc4CCC3C1CC[C@H]2O (some centres undefined)	0.985

Could you now consider this next compound?
Record request: normalized growth value, item COc1ccc2c(c1)CCC1C2CCC2(C)C1C[C@@H](O)C2O (some centres undefined)
0.993

====

Test: chemical genetic growth profiling, strain panel (AID 1159580)
Details: S. cerevisiae deletion strains, growth OD, locus YMR263W, strain SAP30, hits give low values
In all, about 5,500 compounds went through this assay and about 2,000 (36%) were called active. Roughly 18% stayed inconclusive and do not appear here. Some of the results follow.
Examples of compounds with documented normalized growth follow.
Please reply with the number alone, leaving off any unit.

Record request: normalized growth value, item `Cc1ccc(S(=O)(=O)N[C@@H](Cc2ccccc2)C(=O)CCl)cc1`
0.993

Record request: normalized growth value, item `CCCCOc1cc(C(=O)NCCN(CC)CC)c2ccccc2n1`
1

Record request: normalized growth value, item `Cc1ccc(S(=O)(=O)N[C@@H](CCCCN)C(=O)CCl)cc1`
1.01

Record request: normalized growth value, item `COC(=O)[C@@H]1[C@H]2C[C@H]3c4[nH]c5ccccc5c4CCN3C[C@@H]2CC[C@@H]1O`
0.987

Record request: normalized growth value, item `COc1ccc(-c2oc3c(CC=C(C)C)c(O[C@@H]4O[C@H](CO)[C@@H](O)[C@H](O)[C@H]4O)cc(O)c3c(=O)c2O[C@@H]2O[C@@H](C)[C@H](O)[C@@H](O)[C@H]2O)cc1`
1

Record request: normalized growth value, item `COc1cc2c(cc1OC)[C@@H](c1ccccc1)CN(C)CC2`
1.01

Record request: normalized growth value, item `Brc1ccc(-c2ccn[nH]2)s1`
1.02

====

Assay: chemical genetic growth profiling, strain panel (AID 1159580)
Conditions: S. cerevisiae deletion strains, growth OD, locus YDL101C, strain DUN1, hits give low values
Hit rate of the full screen: of about 5,500 compounds, about 2,000 (36%) were called active. Not shown: some 18% with an inconclusive outcome. The list shows a part of the results.
metric name: normalized growth
Please reply with the number alone, leaving off any unit.

// known answers, use as guide
molecule	metric name	meas value
CC1CCC2(OC1)OC1CC3C4CC[C@H]5C[C@@H](O)CC[C@]5(C)C4CC(=O)[C@]3(C)C1C2C (stereo partly specified)	normalized growth	1.01
CC(=O)OC(C)C[N+](C)(C)C (stereo unspecified)	normalized growth	1
CCCCCCCCCCCCCCCCCC(=O)OC(CC(=O)O)C[N+](C)(C)C (stereo unspecified)	normalized growth	0.374
CCOC(=O)c1sc(SC(C)C)c2c1CCCC2=O	normalized growth	0.973
CC1CC[C@]2(NC1)O[C@H]1CC3C4CC[C@H]5C[C@@H](O)CC[C@]5(C)C4CC[C@]3(C)[C@H]1[C@@H]2C (stereo partly specified)	normalized growth	0.0938

Could you now consider this next molecule?
Record request: normalized growth value, item C[N+](C)(C)CC(O)CC(=O)O (stereo unspecified)
1

====

Test: chemical genetic growth profiling, strain panel (AID 1159580)
Settings: S. cerevisiae deletion strains, growth OD, locus YHR142W, strain chs7
Screen size: about 5,500 compounds; about 2,000 (36%) were called active. Inconclusive results (about 18%) are left out. No stated cut-off is given here; in the data, active means normalized growth mostly below about 0.91 (no sharp cut-off); inconclusive means no clear call, values can overlap the other calls; inactive means mostly above about 0.92. The list shows a part of the results.
Respond with a class label; see Y for active, N for inactive

Below, 4 compounds whose answers are already recorded.
compound	group
NC(=NCCC[C@H](N)C(=O)O)N[N+](=O)[O-]	N
C[C@]12CCC3c4ccc(O)cc4CCC3C1CC[C@@H]2O (stereo partly drawn)	N
CO[C@@]1(NC(=O)C(C(=O)O)c2ccc(O)cc2)C(=O)N2C(C(=O)O)=C(CSc3nnnn3C)CO[C@@H]21 (stereo partly drawn)	N
CN1C[C@H](C(=O)N[C@]2(C)O[C@@]3(O)[C@@H]4CCCN4C(=O)[C@H](Cc4ccccc4)N3C2=O)C[C@@H]2c3cccc4[nH]cc(c34)C[C@H]21	N

Call for entry `CN(C)c1ccc2nc3ccc(=[N+](C)C)cc-3sc2c1` :
N

Call for entry CC(C)c1c(O)c(-c2cc3c(c(C(C)C)c2O)CCC2C(C)(C)CCC[C@]32C)cc2c1CCC1C(C)(C)CCC[C@]21C (stereo partly drawn) :
N

Call for entry `CCOCN(C(=O)CCl)c1c(C)cccc1CC` :
N

Call for entry O=C1C=C2C(=CCOC2O)O1 (stereo not drawn) :
Y

====

Assay: chemical genetic growth profiling, strain panel (AID 1159580)
Conditions: S. cerevisiae deletion strains, growth OD, locus YFL009W, strain cdc4, hits give low values
Hit rate of the full screen: of about 5,500 compounds, about 2,000 (36%) were called active. Inconclusive results (about 18%) are left out. The list shows a part of the results.
metric name: normalized growth
Please reply with the number alone, leaving off any unit.

// known answers, use as guide
smiles record	normalized growth
CC(C)(C)NC(=S)N/N=C\c1ccccc1O	0.928
COCCCNC(=S)N/N=C\c1cc(Br)ccc1O	0.96
FC(F)(F)c1cccc(NC(=S)NN=C2CCCCCC2)c1	0.986
O=S(=O)(CS(=O)(=O)Oc1ccc(Cl)c(Cl)c1)Oc1ccc(Cl)c(Cl)c1	0.931

Could you now consider this next compound?
Record request: normalized growth value, item `CN(C)C=Nc1nnc(Sc2nc3c(Cl)cc(Cl)cc3s2)s1`
0.963

====

Examples of compounds with documented normalized growth follow.
Assay: chemical genetic growth profiling, strain panel (AID 1159580);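 also: tested at 20 µM; growth read once vehicle control cultures reached saturation at 30 °C; 1 = growth at the plate median or of vehicle wells; lower values mean less growth of the strain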
Settings: S. cerevisiae deletion strains, growth OD, locus YKL085W, strain MDH1 (second series), hits give low values
Out of some 5,500 compounds screened, about 2,000 (36%) were called active. Another 18% or so got no clear call; they are omitted. Some of the results follow.

// known answers, use as guide
compound	meas value
CCC(N)C(O)c1ccc(O)c(O)c1 (configuration not stated)	0.985 (inactive)
CCCCCc1c2c(cc(O)c1C(=O)O)OC(=O)c1c(cc(OC)cc1C(=O)CCCC)O2	0.995 (inactive)
NC(=O)CN1CCCC1=O	1.02 (inactive)
CCCCOc1cc(C(=O)NCCN(CC)CC)c2ccccc2n1	0.989 (inactive)
CCC(c1ccc(O)cc1)C(CC)c1ccc(O)cc1 (configuration not stated)	0.984 (inactive)
CC/C(=C(/CC)c1ccc(O)cc1)c1ccc(O)cc1	0.973 (inactive)

Could you now consider this next compound?
Record request: normalized growth value, item CCCCCCC(C)OC(=O)COc1ccc(Cl)cc1Cl (configuration not stated)
0.984 (inactive)

====

Test: chemical genetic growth profiling, strain panel (AID 1159580);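 also: tested at 20 µM; growth read once vehicle control cultures reached saturation at 30 °C; 1 = growth at the plate median or of vehicle wells; lower values mean less growth of the strain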
Conditions: S. cerevisiae deletion strains, growth OD, locus YJL095W, strain BCK1, hits give low values
Out of some 5,500 compounds screened, about 2,000 (36%) were called active. Inconclusive results (about 18%) are left out. Some of the results follow.
metric name: normalized growth
Please reply with the number alone, leaving off any unit.

// known answers, use as guide
compound	normalized growth
NC(=NCCC[C@H](N)C(=O)O)N[N+](=O)[O-]	1
CC(=O)O[C@@H]1CC(=O)[C@@]2(C)C(CC(=O)[C@]3(C)C2CC[C@@]2(C)[C@H](c4ccoc4)OC(=O)C4OC423)C1(C)C (some centres undefined)	0.963
O=C(NNc1ccc(F)cc1F)c1sccc1Cl	0.939

Could you now consider this next compound?
Record request: normalized growth value, item `CCOC(=O)NC1=C(C2CC2)C(=O)C(NC(=O)OCC)=C(C2CC2)C1=O`
1.05

====

Assay: chemical genetic growth profiling, strain panel (AID 1159580);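 also: tested at 20 µM; growth read once vehicle control cultures reached saturation at 30 °C; 1 = growth at the plate median or of vehicle wells; lower values mean less growth of the strain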
Conditions: S. cerevisiae deletion strains, growth OD, locus YHR200W, strain rpn10, hits give low values
About 2,000 (36%) of roughly 5,500 compounds were called active. Roughly 18% stayed inconclusive and do not appear here. The list shows a part of the results.
metric name: normalized growth
Please reply with the number alone, leaving off any unit.

compound	normalized growth
CC1(C)O[C@H]2CC(=O)OC[C@]23[C@H]2CC[C@@]4(C)[C@H](c5ccoc5)OC(=O)[C@H]5O[C@]54[C@]2(C)C(=O)C[C@@H]13	0.987
CC(CC(O)C1OC1(C)C)[C@@H]1CCC2(C)C3=CCC4C(C)(C)C(=O)CCC4(C)C3CC[C@@]12C (stereo partly specified)	1.03
CC1=CC(=O)C2=C(C)CC[C@@H]3[C@H](OC(=O)[C@H]3C)[C@@H]12	0.998

Record request: normalized growth value, item `Cc1[nH]ccc2c1[nH]c1cc(=O)ccc12`
0.993

Record request: normalized growth value, item Cc1ccccc1OCC(O)CO (stereo unspecified)
1

Record request: normalized growth value, item CC(=O)O[C@@H]1CC(=O)[C@@]2(C)C(CC(=O)[C@]3(C)C2CC[C@@]2(C)[C@H](c4ccoc4)OC(=O)C4OC423)C1(C)C (stereo partly specified)
1
